Data provenance: paper PMC9774391

- testSystem: BChE (Homo sapiens)
- Sequence (P06276 29-602): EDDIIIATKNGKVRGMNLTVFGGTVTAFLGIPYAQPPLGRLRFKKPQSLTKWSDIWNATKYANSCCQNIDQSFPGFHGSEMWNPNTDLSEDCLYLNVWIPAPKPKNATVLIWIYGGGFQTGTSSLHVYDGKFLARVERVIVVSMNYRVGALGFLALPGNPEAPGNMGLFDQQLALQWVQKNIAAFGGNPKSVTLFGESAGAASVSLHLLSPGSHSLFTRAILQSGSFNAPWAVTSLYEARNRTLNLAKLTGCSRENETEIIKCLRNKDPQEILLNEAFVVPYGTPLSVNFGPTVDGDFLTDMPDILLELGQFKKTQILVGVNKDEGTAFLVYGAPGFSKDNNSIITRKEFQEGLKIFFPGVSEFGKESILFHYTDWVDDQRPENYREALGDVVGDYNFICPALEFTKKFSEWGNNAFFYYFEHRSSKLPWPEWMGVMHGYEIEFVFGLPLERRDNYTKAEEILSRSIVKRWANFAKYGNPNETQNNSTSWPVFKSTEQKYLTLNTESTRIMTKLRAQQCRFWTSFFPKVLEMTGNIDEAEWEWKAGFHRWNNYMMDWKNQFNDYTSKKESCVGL
- protocolSummary: biochemical
- runConditions: 10^–3 M
measuredEndpoint: inhibition at 1000 µM (%)
Numbers only, in %.

COc1cc2c(cc1OC)C(=O)/C(=C/c1ccc(NC(=O)CN(C)CCCN(C)C)cc1)C2	92.8

Provide each entry's inhibition at 1000 µM from the list below.
1. COCCN1CCN(CC(=O)Nc2ccc(/C=C3\Cc4cc(OC)ccc4C3=O)cc2)CC1
2. COc1ccc2c(c1)C/C(=C\c1ccc(NC(=O)CN3CCN(CCCN(C)C)CC3)cc1)C2=O
3. COc1cc2c(cc1OC)C(=O)/C(=C/c1ccc(NC(=O)CN3CCN(CCCO)CC3)cc1)C2

Result:
[90.1, 95.7, 99.7]

---

- testSystem: Beta Amyloid 1–42 (Aβ42) (Homo sapiens)
- Construct: The Beta Amyloid 1–42 (Aβ42) Ligand Screening Assay kit
- protocolSummary: Beta Amyloid 1–42 (Aβ42) inhibitor screening assay
- runConditions: read-out: IC50 on β-amyloid plaque aggregation
measuredEndpoint: IC50 (nM)
Answers are plain numbers, in nM.

Record excerpt, results attached:
CCCN(C)CC(=O)Nc1ccc(/C=C2\Cc3cc(OC)c(OC)cc3C2=O)cc1	178
CCCN(C)CC(=O)Nc1ccc(/C=C2\Cc3ccc(OC)cc3C2=O)cc1	124
CCCN(C)CC(=O)Nc1ccc(/C=C2\Cc3cc(OC)ccc3C2=O)cc1	147

Q: Please give the measured IC50 for this molecule: `COc1cc2c(cc1OC)C(=O)/C(=C/c1ccc(NC(=O)CN(C)CCCN(C)C)cc1)C2`
Result: 197

---

Hi there, I'd appreciate the recorded inhibition at 0.01 µM for every entry that follows.
- testSystem: AChE (Homo sapiens, UniProt P22303)
- Sequence (P22303 32-614): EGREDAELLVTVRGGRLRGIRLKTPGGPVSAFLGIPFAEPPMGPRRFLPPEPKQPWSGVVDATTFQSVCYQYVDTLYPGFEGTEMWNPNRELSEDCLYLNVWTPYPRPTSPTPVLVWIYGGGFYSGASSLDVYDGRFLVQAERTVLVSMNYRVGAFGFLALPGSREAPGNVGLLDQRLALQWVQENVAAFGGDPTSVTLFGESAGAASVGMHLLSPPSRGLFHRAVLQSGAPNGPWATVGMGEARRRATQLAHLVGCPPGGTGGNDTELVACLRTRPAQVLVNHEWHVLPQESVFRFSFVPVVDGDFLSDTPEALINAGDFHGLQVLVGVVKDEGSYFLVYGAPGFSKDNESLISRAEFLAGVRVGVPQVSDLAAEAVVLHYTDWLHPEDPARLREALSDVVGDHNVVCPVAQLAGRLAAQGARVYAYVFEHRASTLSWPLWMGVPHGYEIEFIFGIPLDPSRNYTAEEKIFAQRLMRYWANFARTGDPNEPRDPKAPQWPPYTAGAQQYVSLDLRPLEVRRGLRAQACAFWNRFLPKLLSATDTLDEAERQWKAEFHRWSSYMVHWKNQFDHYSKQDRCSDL
- protocolSummary: biochemical
- runConditions: 10^–8 M
Answer format reminder: number followed by unit.

Record excerpt, results attached:
COc1cc2c(cc1OC)C(=O)/C(=C/c1ccc(NC(=O)CN(C)CCN(C)C)cc1)C2 [D36]	33.1%
COc1ccc2c(c1)C(=O)/C(=C/c1ccc(NC(=O)CN(C)CCCN(C)C)cc1)C2 [D38]	37.2%
COc1ccc2c(c1)C(=O)/C(=C/c1ccc(NC(=O)CN3CCN(CCN(C)C)CC3)cc1)C2 [D23]	35.5%

Provide each entry's inhibition at 0.01 µM from the list below.
1. COc1ccc2c(c1)C(=O)/C(=C/c1ccc(NC(=O)CN3CCN(CCCN(C)C)CC3)cc1)C2 [D26]
2. CCCN(C)CC(=O)Nc1ccc(/C=C2\Cc3cc(OC)ccc3C2=O)cc1 [D28]
3. COc1ccc2c(c1)C(=O)/C(=C/c1ccc(NC(=O)CN3CCN(CCCO)CC3)cc1)C2 [D20]
4. COc1ccc2c(c1)C/C(=C\c1ccc(NC(=O)CN3CCN(CCN(C)C)CC3)cc1)C2=O [D22]
5. COc1ccc2c(c1)C/C(=C\c1ccc(NC(=O)CN3CCN(CCCN(C)C)CC3)cc1)C2=O [D25]

Result:
35.6%
36%
40.2%
43%
35.3%

---

- testSystem: MAO-A (Homo sapiens)
- Sequence (P21397 whole entry): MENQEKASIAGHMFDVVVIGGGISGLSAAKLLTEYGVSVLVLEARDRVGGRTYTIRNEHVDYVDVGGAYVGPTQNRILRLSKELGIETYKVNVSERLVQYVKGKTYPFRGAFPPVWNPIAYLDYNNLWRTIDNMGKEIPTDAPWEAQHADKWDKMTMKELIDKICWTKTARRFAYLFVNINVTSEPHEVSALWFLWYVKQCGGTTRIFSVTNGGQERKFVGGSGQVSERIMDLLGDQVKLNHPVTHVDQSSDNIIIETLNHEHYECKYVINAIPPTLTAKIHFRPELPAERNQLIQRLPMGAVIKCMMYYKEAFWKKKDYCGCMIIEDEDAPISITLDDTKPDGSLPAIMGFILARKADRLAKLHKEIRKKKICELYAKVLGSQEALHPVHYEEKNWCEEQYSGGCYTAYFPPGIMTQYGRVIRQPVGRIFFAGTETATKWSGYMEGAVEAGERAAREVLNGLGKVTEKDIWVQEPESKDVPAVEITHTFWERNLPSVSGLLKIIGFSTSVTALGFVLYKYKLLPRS
- protocolSummary: In vitro MAO-A inhibition assay (fluorometric)
- Format: biochemical
- runConditions: 10^–4 M
Hi there, I'd appreciate the recorded inhibition at 100 µM for every entry that follows.
Give bare numbers, in %.

Record excerpt, results attached:
COc1ccc2c(c1)C/C(=C\c1ccc(NC(=O)CN3CCN(C)CC3)cc1)C2=O [D1]	21.4
CCN1CCN(CC(=O)Nc2ccc(/C=C3\Cc4cc(OC)c(OC)cc4C3=O)cc2)CC1	33.9
C=CCN1CCN(CC(=O)Nc2ccc(/C=C3\Cc4ccc(OC)cc4C3=O)cc2)CC1	26.6

Attention now turns to another entry.
Q: MAO-A (Homo sapiens) / inhibition at 100 µM / `COc1ccc2c(c1)C/C(=C\c1ccc(NC(=O)CN3CCN(CCO)CC3)cc1)C2=O` : value?
Result: 22

---

Hi there, I'd appreciate the recorded inhibition at 0.001 µM for every entry that follows.
- testSystem: AChE (Homo sapiens, UniProt P22303)
- protocolSummary: biochemical
- runConditions: 10^–9 M
One number for each entry, in %.

Provide each entry's inhibition at 0.001 µM from the list below.
1. COc1ccc2c(c1)C(=O)/C(=C/c1ccc(NC(=O)CN(C)CCCN(C)C)cc1)C2 [D38]
2. COc1ccc2c(c1)C(=O)/C(=C/c1ccc(NC(=O)CN(C)CCN(C)C)cc1)C2 [D35]
3. COc1ccc2c(c1)C/C(=C\c1ccc(NC(=O)CN3CCN(CCN(C)C)CC3)cc1)C2=O [D22]
4. COc1ccc2c(c1)C/C(=C\c1ccc(NC(=O)CN(C)CCN(C)C)cc1)C2=O [D34]
5. CCCN(C)CC(=O)Nc1ccc(/C=C2\Cc3cc(OC)c(OC)cc3C2=O)cc1 [D30]

Result:
1: 19.7; 2: 21.5; 3: 18.8; 4: 23.5; 5: 16.4

Provide each entry's inhibition at 0.001 µM from the list below.
1. COc1ccc2c(c1)C/C(=C\c1ccc(NC(=O)CN3CCN(CCCO)CC3)cc1)C2=O [D19]
2. COc1ccc2c(c1)C/C(=C\c1ccc(NC(=O)CN(C)CCCN(C)C)cc1)C2=O [D37]
3. COc1cc2c(cc1OC)C(=O)/C(=C/c1ccc(NC(=O)CN3CCN(CCCN(C)C)CC3)cc1)C2 [D27]
4. COc1ccc2c(c1)C(=O)/C(=C/c1ccc(NC(=O)CN3CCN(CCCO)CC3)cc1)C2 [D20]

Result:
1. 20.6
2. 19.7
3. 22.5
4. 21.1

---

- System: NIH/3T3 mouse embryonic fibroblast cell line
- protocolSummary: Cytotoxicity test (MTT)
- Type: cell-based
- runConditions: NIH/3T3 mouse fibroblast healthy cell line
measuredEndpoint: IC50
Answer format reminder: number followed by unit.

Q: Please give the measured IC50 for this compound: COc1cc2c(cc1OC)C(=O)C(=Cc1ccc(NC(=O)CN3CCN(CCN(C)C)CC3)cc1)C2 [D24]
Result: 18.6 µM

---

- testSystem: Beta Amyloid 1–42 (Aβ42) (Homo sapiens, UniProt P05067)
- Construct: The Beta Amyloid 1–42 (Aβ42) Ligand Screening Assay kit; purchased BioVision, Milpitas, CA
- Sequence (P05067 672-713 limits assumed): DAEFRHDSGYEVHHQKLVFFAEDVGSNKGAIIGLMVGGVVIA
- protocolSummary: Beta Amyloid 1–42 (Aβ42) inhibitor screening assay
- Format: biochemical
- runConditions: 10^–4 M; read-out: % β-amyloid plaque inhibition
Hi there, I'd appreciate the recorded inhibition at 100 µM for every entry that follows.
One number for each entry, in %.

Provide each entry's inhibition at 100 µM from the list below.
1. CCCN(C)CC(=O)Nc1ccc(/C=C2\Cc3cc(OC)c(OC)cc3C2=O)cc1 [D30]
2. CCCN(C)CC(=O)Nc1ccc(/C=C2\Cc3ccc(OC)cc3C2=O)cc1 [D29]
3. COc1cc2c(cc1OC)C(=O)/C(=C/c1ccc(NC(=O)CN(C)CCCN(C)C)cc1)C2 [D39]

Result:
1: 81.5; 2: 71.9; 3: 69.8

Provide each entry's inhibition at 100 µM from the list below.
1. CCCN(C)CC(=O)Nc1ccc(/C=C2\Cc3cc(OC)ccc3C2=O)cc1 [D28]
2. COc1cc(/C=C/C(=O)CC(=O)/C=C/c2ccc(O)c(OC)c2)ccc1O [curcumin, reference compound]

Result:
1. 75.6
2. 88.2

---

- testSystem: BChE (Homo sapiens)
- protocolSummary: biochemical
- runConditions: 10^–4 M
Hi there, I'd appreciate the recorded inhibition at 100 µM for every entry that follows.
Numbers only, in %.

Record excerpt, results attached:
CCN1CCN(CC(=O)Nc2ccc(/C=C3\Cc4ccc(OC)cc4C3=O)cc2)CC1 [D5]	26.3
COc1cc2c(cc1OC)C(=O)/C(=C/c1ccc(NC(=O)CN3CCN(C)CC3)cc1)C2 [D3]	40.4
COc1ccc2c(c1)C(=O)/C(=C/c1ccc(NC(=O)CN3CCN(CCCN(C)C)CC3)cc1)C2 [D26]	31.1

Provide each entry's inhibition at 100 µM from the list below.
1. C#CCN(C)CC(=O)Nc1ccc(/C=C2\Cc3ccc(OC)cc3C2=O)cc1 [D32]
2. COc1cc2c(cc1OC)C(=O)/C(=C/c1ccc(NC(=O)CN(C)CCCN(C)C)cc1)C2 [D39]
3. COc1ccc2c(c1)C/C(=C\c1ccc(NC(=O)CN3CCN(CCCN(C)C)CC3)cc1)C2=O [D25]

Result:
24.7
87.3
32

Provide each entry's inhibition at 100 µM from the list below.
1. C#CCN(C)CC(=O)Nc1ccc(/C=C2\Cc3cc(OC)ccc3C2=O)cc1 [D31]
2. COCCN1CCN(CC(=O)Nc2ccc(/C=C3\Cc4cc(OC)ccc4C3=O)cc2)CC1 [D13]
3. CCN1CCN(CC(=O)Nc2ccc(/C=C3\Cc4cc(OC)ccc4C3=O)cc2)CC1 [D4]
4. C#CCN(C)CC(=O)Nc1ccc(/C=C2\Cc3cc(OC)c(OC)cc3C2=O)cc1 [D33]
5. CCCN(C)CC(=O)Nc1ccc(/C=C2\Cc3cc(OC)c(OC)cc3C2=O)cc1 [D30]
6. C=CCN1CCN(CC(=O)Nc2ccc(/C=C3\Cc4ccc(OC)cc4C3=O)cc2)CC1 [D8]
7. COc1ccc2c(c1)C(=O)/C(=C/c1ccc(NC(=O)CN3CCN(CCCO)CC3)cc1)C2 [D20]
8. CCCN(C)CC(=O)Nc1ccc(/C=C2\Cc3ccc(OC)cc3C2=O)cc1 [D29]

Result:
[41.6, 23.9, 21.2, 46.6, 46.4, 28.4, 20.1, 26.9]

Provide each entry's inhibition at 100 µM from the list below.
1. CCN1CCN(CC(=O)Nc2ccc(/C=C3\Cc4cc(OC)c(OC)cc4C3=O)cc2)CC1 [D6]
2. COc1ccc2c(c1)C/C(=C\c1ccc(NC(=O)CN3CCN(C)CC3)cc1)C2=O [D1]
3. CCCN(C)CC(=O)Nc1ccc(/C=C2\Cc3cc(OC)ccc3C2=O)cc1 [D28]
4. COCCN1CCN(CC(=O)Nc2ccc(/C=C3\Cc4cc(OC)c(OC)cc4C3=O)cc2)CC1 [D15]
5. COCCN1CCN(CC(=O)Nc2ccc(/C=C3\Cc4ccc(OC)cc4C3=O)cc2)CC1 [D14]
6. CCN(CC)CCN(CC)CC(=O)Nc1ccc(/C=C2\Cc3cc(OC)ccc3C2=O)cc1 [D40]

Result:
1. 32.8
2. 32.8
3. 36.6
4. 43.5
5. 33
6. 44.3
